The values you see were collected from patent US10160755B2.

# Measured On: FLT3-ITD (Homo sapiens)
# Construct: FLT3-ITD; Invitrogen #PV6190
# Protocol Details: FLT3-ITD biochemical kinase assay (AlphaScreen)
Measurement Label: IC50

Compound	Assay Value
COc1cc(-c2cnc3[nH]cc(-c4ccc5ncn(C(C)(C)C)c5c4)c3n2)ccn1 [P-099]	0.0001 to 1 µM

Query string: State its IC50 for this compound: CC(C)(C)n1cnc2ccc(-c3c[nH]c4ncc(-c5cncc(NS(C)(=O)=O)c5)cc34)cc21 [P-371]
Result string: 0.0001 to 1 µM

Query string: State its IC50 for this compound: CC(C)(C)n1cnc2ccc(-c3c[nH]c4ncc(-c5cnc(NC6CC6)nc5)cc34)cc21 [P-400]
Result string: 0.0001 to 1 µM

Query string: State its IC50 for this compound: Cc1ncc(C#Cc2cnc3[nH]cc(-c4ccc5ncn(C(C)(C)C)c5c4)c3c2)cn1 [P-383]
Result string: 0.0001 to 1 µM

Query string: State its IC50 for this compound: Cc1nc2cc(-c3c[nH]c4ncccc34)ccc2[nH]1 [P-012]
Result string: 1 to 10 µM

Query string: State its IC50 for this compound: N#Cc1cnc2[nH]cc(-c3ccc4nc[nH]c4c3)c2c1 [P-023]
Result string: 0.0001 to 1 µM

Query string: State its IC50 for this compound: Cn1cc(-c2ccc(-c3cnc4[nH]cc(-c5ccc6ncn(C(C)(C)C)c6c5)c4n3)cc2)cn1 [P-306]
Result string: 0.0001 to 1 µM

Query string: State its IC50 for this compound: COc1cc(-c2cnc3[nH]cc(-c4ccc5ncn(C6CCCN(C)C6)c5c4)c3n2)ccn1 (stereo not drawn) [P-271]
Result string: 0.0001 to 1 µM

Query string: State its IC50 for this compound: C=CCS(=O)(=O)Nc1cccc(-c2cnc3[nH]cc(-c4ccc5ncn(C(C)(C)C)c5c4)c3c2)c1 [P-375]
Result string: 0.0001 to 1 µM
